Entry source: ChEMBL document CHEMBL1137115

Experiment: Inhibition of Protein kinase A
pIC50: −log10 of the molar value.
Readings of pIC50 for the listed compounds
Observation Type: pIC50

Smiles Code: O=C1NC(=O)c2c1c1c3cc(F)ccc3[nH]c1c1c2c2cccc3c2n1CCNC3
Qualifier Symbol: =
Result: 6.70

Smiles Code: O=C1NC(=O)c2c1c1c3cc(F)c(F)cc3[nH]c1c1c2c2cccc3c2n1CCNC3
Qualifier Symbol: <
Result: 5.70

Smiles Code: CS(=O)(=O)N1CCn2c3c(cccc3c3c4c(c5c6ccccc6[nH]c5c32)C(=O)NC4=O)C1
Qualifier Symbol: <
Result: 5.70

Smiles Code: O=C1NC(=O)c2c1c1c3ccc(F)cc3[nH]c1c1c2c2cccc3c2n1CCNC3
Qualifier Symbol: =
Result: 6.37

Smiles Code: CC(C)N1CCn2c3c(cccc3c3c4c(c5c6ccccc6[nH]c5c32)C(=O)NC4=O)C1
Qualifier Symbol: <
Result: 5.70
